Data origin: the supplement of paper PMC10126150

A collection of sequences and their measured switch fluorescence ratio
Test system: ATP;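 also: ATP exposure 15 min at 22 °C before imaging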
Assay: switch fluorescence ratio, 500 uM ATP over buffer (Cy3 cluster intensity, sum of 5 cycles each) (fold (ratio)); higher = stronger signal-on switching upon ATP binding; sequences stand for … in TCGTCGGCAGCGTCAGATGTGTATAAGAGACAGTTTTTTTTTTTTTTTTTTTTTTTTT…TC
Conditions: aptamer strand: ATP DNA aptamer (quencher-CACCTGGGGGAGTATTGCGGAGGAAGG + anchor), 100 nM annealed; ATP concentration: 500 uM
Note: the reply should be a number with no unit written.

Use the examples below as a reference point.
sequence_data=CGCATTTAGG measurement_target=ATP quantity_name="switch fluorescence ratio" experimental_result=1.08
sequence_data=CTCCGGGCGA measurement_target=ATP quantity_name="switch fluorescence ratio" experimental_result=4.47
sequence_data=TGGGAACCAA measurement_target=ATP quantity_name="switch fluorescence ratio" experimental_result=1.02
sequence_data=GGTCGCTACA measurement_target=ATP quantity_name="switch fluorescence ratio" experimental_result=1.01
sequence_data=CCATGGTTGT measurement_target=ATP quantity_name="switch fluorescence ratio" experimental_result=1.01
sequence_data=GACGTAGT measurement_target=ATP quantity_name="switch fluorescence ratio" experimental_result=1.01
sequence_data=TGTGGGGTCG measurement_target=ATP quantity_name="switch fluorescence ratio" experimental_result=1.01
sequence_data=AGACGGGTAG measurement_target=ATP quantity_name="switch fluorescence ratio" experimental_result=0.968

**Query** Which measured switch fluorescence ratio value corresponds to `CGAGTATGCA` ?
**Result** 0.981

**Query** Do the same for `CCTCGACAGC` please
**Result** 3.43

**Query** What about `GAGAGTATAA` ?
**Result** 0.99

**Query** Would you kindly repeat that for `CGGGGGACT` ?
**Result** 1.61

**Query** Same again, this time with `GGGGTAAGAA`
**Result** 0.981

**Query** // same read-out, input: `TAAGGTGATG`
**Result** 1.01

**Query** Then what about the sequence `GCGAGCAATG` ?
**Result** 1.03

**Query** Thanks! And `TTTGGTCGTG` ?
**Result** 1.04

**Query** `GGCATCTAAG` , same question.
**Result** 0.997

**Query** Can you handle `GGGCAATGAG` next?
**Result** 1.09

----------
Below, each entry is listed with its recorded switch fluorescence ratio.
System: ATP;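 also: ATP exposure 15 min at 22 °C before imaging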
Assay: switch fluorescence ratio, 500 uM ATP over buffer (Cy3 cluster intensity, sum of 5 cycles each) (fold (ratio)); higher = stronger signal-on switching upon ATP binding; sequences stand for … in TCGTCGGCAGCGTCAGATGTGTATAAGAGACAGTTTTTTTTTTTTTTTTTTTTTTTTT…TC
Conditions: aptamer strand: ATP DNA aptamer (quencher-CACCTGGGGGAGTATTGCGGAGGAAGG + anchor), 100 nM annealed; ATP concentration: 500 uM
Form field (numeric): enter value without unit.

sequence_data=TGCCCGCCGT quantity_name="switch fluorescence ratio" experimental_result=1.03

**Query** API: value(readout= switch fluorescence ratio, system= ATP, query= `GGTATCTGTA` );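 also: ATP exposure 15 min at 22 °C before imaging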
**Result** 1

**Query** How about this sequence: `GGTCTCTGGA`
**Result** 1.01

----------
Test system: ATP;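 also: ATP exposure 15 min at 22 °C before imaging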
Experiment: switch fluorescence ratio, 500 uM ATP over buffer (Cy3 cluster intensity, sum of 5 cycles each) (fold (ratio)); higher = stronger signal-on switching upon ATP binding; sequences stand for … in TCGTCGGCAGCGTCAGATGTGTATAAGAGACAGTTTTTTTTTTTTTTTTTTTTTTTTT…TC
Conditions: aptamer strand: ATP DNA aptamer (quencher-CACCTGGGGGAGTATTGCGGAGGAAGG + anchor), 100 nM annealed; ATP concentration: 500 uM
switch fluorescence ratio listing for selected sequences.

// below: answered sequences
sequence_data=TTAGGAGAAA experimental_result=1.03
sequence_data=TGGTTTGCCG experimental_result=1.01

**Query** Lab note: need switch fluorescence ratio for `CTGTCCAGTT` on ATP, anyone have it?
**Result** 1.02

----------
Tested on: ATP;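 also: ATP exposure 15 min at 22 °C before imaging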
Assay: switch fluorescence ratio, 500 uM ATP over buffer (Cy3 cluster intensity, sum of 5 cycles each) (fold (ratio)); higher = stronger signal-on switching upon ATP binding; sequences stand for … in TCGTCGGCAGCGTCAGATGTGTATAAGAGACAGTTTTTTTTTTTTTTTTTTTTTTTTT…TC
Details: aptamer strand: ATP DNA aptamer (quencher-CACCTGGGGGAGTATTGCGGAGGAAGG + anchor), 100 nM annealed; ATP concentration: 500 uM
quantity-name: switch fluorescence ratio
Please give only the number in your answer, with no unit.

Use the examples below as a reference point.
sequence_data=GAGGGTATCG experimental_result=0.984
sequence_data=TTATATTAGC experimental_result=1
sequence_data=CCTATAATAG experimental_result=1.17

Now look at this entry.
**Query** Using the record for `AGTATATTTT` , report its switch fluorescence ratio.
**Result** 1.01

----------
Known switch fluorescence ratio of a selection of sequences
Tested on: ATP;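 also: ATP exposure 15 min at 22 °C before imaging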
Test: switch fluorescence ratio, 500 uM ATP over buffer (Cy3 cluster intensity, sum of 5 cycles each) (fold (ratio)); higher = stronger signal-on switching upon ATP binding; sequences stand for … in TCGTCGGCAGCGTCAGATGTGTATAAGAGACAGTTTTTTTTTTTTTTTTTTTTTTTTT…TC
Conditions: aptamer strand: ATP DNA aptamer (quencher-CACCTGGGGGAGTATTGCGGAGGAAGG + anchor), 100 nM annealed; ATP concentration: 500 uM

// solved cases for switch fluorescence ratio follow
sequence_data=GGGAGAGGGG experimental_result=0.987
sequence_data=GCGTATGGGG experimental_result=0.977
sequence_data=GCTAATGTTT experimental_result=0.998

**Query** Quick one: switch fluorescence ratio of `TGGATAGGCA` ?
**Result** 0.986

**Query** Try the sequence `GGGCTAGTGG`
**Result** 1.02

**Query** Also, `TTTAGCCCAG` please.
**Result** 1.01

**Query** Now consider `TTTGAATTAA` and answer again.
**Result** 1.01

**Query** Also check `TGAGTAGATA`
**Result** 1.01

**Query** Do the same for `TGAAAAATGG` please
**Result** 1.01

**Query** Same read-out for `AACAGGACAT` ?
**Result** 1.06

**Query** Try the sequence `CGGTCGTTGT`
**Result** 1.02

**Query** // repeat for `TATGTTTGCC` and report
**Result** 1.02

**Query** Same thing, different sequence: `TGTTCTCGGA`
**Result** 1.01

**Query** How about `ACTGCGAATA` ?
**Result** 1.41

**Query** Now consider `CAGCGCCGTT` .
**Result** 1.01

**Query** Try this sequence next: `TCGTGTAGCT`
**Result** 1

**Query** Same lookup for `GTGTTTATAG` , please.
**Result** 0.993

----------
Test system: ATP;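 also: ATP exposure 15 min at 22 °C before imaging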
Assay: switch fluorescence ratio, 500 uM ATP over buffer (Cy3 cluster intensity, sum of 5 cycles each) (fold (ratio)); higher = stronger signal-on switching upon ATP binding; sequences stand for … in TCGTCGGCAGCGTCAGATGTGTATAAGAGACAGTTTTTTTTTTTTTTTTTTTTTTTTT…TC
Conditions: aptamer strand: ATP DNA aptamer (quencher-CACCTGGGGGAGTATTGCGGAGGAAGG + anchor), 100 nM annealed; ATP concentration: 500 uM
Attribute: switch fluorescence ratio
Could you respond with only the numeric value?

Before answering, review these 5 worked examples.
sequence_data=GGGAAAAATT measurement_target=ATP quantity_name="switch fluorescence ratio" experimental_result=1.01
sequence_data=CCAGGTTTCA measurement_target=ATP quantity_name="switch fluorescence ratio" experimental_result=1.03
sequence_data=TCTATTTGTA measurement_target=ATP quantity_name="switch fluorescence ratio" experimental_result=0.999
sequence_data=TATAGACTTT measurement_target=ATP quantity_name="switch fluorescence ratio" experimental_result=1.02
sequence_data=TCATTTTTGC measurement_target=ATP quantity_name="switch fluorescence ratio" experimental_result=0.979

**Query** Can you look up the measured switch fluorescence ratio of `GGTTTAAAGT` for me?
**Result** 1.01

**Query** Also `AAGTGTGCGA` ?
**Result** 0.997

**Query** Same for `AATGTTAGTG`
**Result** 0.958

----------
Test system: ATP;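 also: ATP exposure 15 min at 22 °C before imaging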
Assay: switch fluorescence ratio, 500 uM ATP over buffer (Cy3 cluster intensity, sum of 5 cycles each) (fold (ratio)); higher = stronger signal-on switching upon ATP binding; sequences stand for … in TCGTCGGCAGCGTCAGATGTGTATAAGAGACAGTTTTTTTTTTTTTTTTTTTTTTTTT…TC
Conditions: aptamer strand: ATP DNA aptamer (quencher-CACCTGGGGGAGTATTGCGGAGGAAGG + anchor), 100 nM annealed; ATP concentration: 500 uM
quantity-name: switch fluorescence ratio
Enter a number only.

Guide cases for switch fluorescence ratio, answers given:
sequence_data=ATTGTAATTT experimental_result=1.01
sequence_data=GTTGTAAGGT experimental_result=0.986
sequence_data=ATCGGGTATG experimental_result=0.999

**Query** I am curious: what switch fluorescence ratio value has been reported for `TTGCGAGTC` ?
**Result** 0.996

**Query** Request: `GTGTTTGGGG`
**Result** 0.977

**Query** // repeat for `TTGGGTAGCC` and report
**Result** 1.03

**Query** Consider next the sequence `AGTGTGGGTT` in the same way.
**Result** 0.979

**Query** Further, for `TAACGGCGTG` ?
**Result** 1.03

**Query** Further, for `AATCGAGGGG` ?
**Result** 0.991

**Query** Next sequence up: `GGATGTTCGT`
**Result** 0.991

**Query** Try this sequence too: `TACAAGGAGA`
**Result** 1

**Query** Another: `CGAGAGACCG`
**Result** 0.951

**Query** Can you check `CCGTAGGAGG` next?
**Result** 1

**Query** Also check `AATATATGGA`
**Result** 1

**Query** Similarly, `ACCTGAGGGG` ?
**Result** 1.02

**Query** Record: `TTGTAAGTAG`
**Result** 0.979

**Query** Then `TTATAGGGAG` ?
**Result** 0.973

**Query** Continue with `TTTTAGGGGC`
**Result** 1.13

**Query** Entry to check: `TTCTTGGGTA`
**Result** 0.989

**Query** Another sequence to look at: `GAGGCCGATT`
**Result** 1.02

**Query** Consider next the sequence `AGAGTTTGTG` in the same way.
**Result** 0.978

**Query** And what about the sequence `TTTGTAGGCA` ?
**Result** 0.989

**Query** Another sequence to look at: `AATCATCGTG`
**Result** 0.965

**Query** Another: `GTCTTCACGG`
**Result** 0.999

**Query** Then `TTTGTTAATA` ?
**Result** 1.02

**Query** Quick one: `TAAATAGTAC`
**Result** 1.07

**Query** Same question for `CAGCTGTCGG` please.
**Result** 1.1

**Query** // same read-out, input: `GTTGGTGGCG`
**Result** 1.02

**Query** Please answer likewise for `CTGGGTAAGT`
**Result** 1.02

**Query** And then `AGTATATATT` , what is it?
**Result** 1
